Test system: 786-0 renal
Assay: NCI-60 one-dose screen, 48 h (100 = growth as untreated, 0 = no growth, -100 = all killed)
Conditions: 10 µM unless noted
Method: Cells are grown in 96 well plates and exposed to the test compound for 48 hours. Compounds are tested at a single concentration, which is 10^-5 M for most compounds. The reported endpoint is percent growth (GI% or GIPRCNT), where numbers from 0 - 100% represent growth inhibition, and numbers from -100% - 0 represent cell death. For example, a value of 40 represents 60% growth inhibition. A value of 0 means no net growth occurred over the course of the experiment. […]
Compounds without any hit were thinned out: in the full panel of roughly 83,000, 20% have a hit. Activity calls are given as the source filed them. How the source made its calls: active means growth percent below 10; inactive means the rest.
Examples of compounds with documented growth follow.
MEASURED PROPERTY: growth

> print(dat)
                                   compound  measured.property      recorded.measurement
1  Brc1cccc(-c2cc(-c3ccc4nccnc4c3)[nH]n2)c1             growth  35.1% [25 µM] (inactive)
2  O=C(Nc1cccc(-n2cc(-c3ccncc3)c(-c3ccc(Cl)c(O)c3)n2)c1)Nc1ccc(Cl)c(Cl)c1             growth          30.1% (inactive)
3  Cc1ccc2nc(-c3cc4c([nH]c5ccccc54)c(-c4ccc(F)c(F)c4)n3)[nH]c2c1             growth          99.6% (inactive)
4  Cc1ccc(S(=O)(=O)C2=C3C(=C(c4ccccc4)c4ccccc43)CN(S(=O)(=O)c3ccc(C)cc3)C2)cc1             growth            5.02% (active)
5  COc1ccc(C2C=C(c3ccc(Cl)cc3)N=C3SC=C(C)N32)c(Br)c1 (centres undefined)             growth          47.2% (inactive)
6  CN1C=CN(Cc2ccc(-c3ccccn3)nc2)[CH-]1.CN1C=CN(Cc2ccc(-c3ccccn3)nc2)[CH-]1.[Au+3]             growth          52.8% (inactive)
7  Brc1ccc(-c2[nH]ncc2-c2c[nH]c3ccccc23)cc1             growth           102% (inactive)
8              Clc1ccc(-c2nc3ccccc3s2)cc1Cl             growth           103% (inactive)
9    COC(=O)c1cc2cc(-c3ccc(OC)cc3)cnc2[nH]1             growth          37.1% (inactive)

====

Examples of compounds with documented growth follow.
Tested on: NCI-H460 lung
Assay: NCI-60 one-dose screen, 48 h (100 = growth as untreated, 0 = no growth, -100 = all killed)
Settings: 10 µM unless noted
About 83,000 compounds went through this panel and 20% of them were active in at least one assay; those are over-represented in the sample as a whole. Activity calls are given as the source filed them. How the source made its calls: active means growth percent below 10; inactive means the rest.
MEASURED PROPERTY: growth

> print(dat)
                                    compound      recorded.measurement
 1  O=S(=O)(NCCNc1nccc(-c2c(-c3ccc(F)cc3)nc3sccn23)n1)c1ccc(F)cc1          48.6% (inactive)
 2  CCC(=O)Oc1ccc(/C(=C(/C)Cc2cccc(OC)c2)c2ccc(OCCN(C)C)cc2)cc1          90.1% (inactive)
 3  Clc1cc(Cl)c2nc(-c3ccc(-c4ccc(/C=N/NC5=NCCN5)cc4)s3)cn2c1          98.8% (inactive)
 4  COc1ccc(-c2c(N)n[nH]c2-c2cc(OC)c3c(c2)OCCO3)cc1            83% (inactive)
 5  C=C1CCC2C3(C)COC(C)(C)OC3CCC2(C)C1C/C=C1/C(=O)OCC1Oc1ccccc1OC (stereo unspecified)           102% (inactive)
 6  COc1cc(Nc2ncccc2C(=O)NCc2cn(Cc3cccc(Oc4ccccc4)c3)nn2)cc(OC)c1          20.2% (inactive)
 7  CCCC(=O)Oc1ccc(/C(=C(\C)c2ccccc2)c2ccc(OCCN(CC)CC)cc2)cc1          69.8% (inactive)
 8  COc1cc2c(cc1OCCCCCn1c3ccccc3c3ccccc31)N=C[C@@H]1CCCN1C2=O           -84.3% (active)
 9  C=C1CCC2C(C)(CO)C(O)CCC2(C)C1C/C=C1/C(=O)OCC1Oc1ccccc1C (stereo unspecified)           104% (inactive)
10           COc1cc([N+](=O)[O-])c2ncccc2c1O            2.09% (active)
11  CCN(CC)CCOC(=O)C(c1ccccc1)(c1ccccc1)C(C)C            92% (inactive)
12  Clc1cccc(-c2cc(-c3ccc4c(c3)OCCO4)[nH]n2)c1  12.1% [25 µM] (inactive)
13  Cc1ccc(S(=O)(=O)NCCNc2cc(-c3cn(C(C)(C)C)nc3-c3cccc(O)c3)ccn2)cc1          60.8% (inactive)
14              NNc1cccc(/C=C/c2ccccc2)cc1=O          27.5% (inactive)
15  O=C(CN1CCN(c2cc3c(cc2F)c(=O)c(C(=O)N/N=C/c2ccccc2O)cn3C2CC2)CC1)N/N=C\c1ccccc1O            0.87% (active)
16  COc1ccc(Nc2[nH]n3c(=O)cc(-c4ccccc4)nc3c2C(=O)Nc2ccc(C)cc2)c(OC)c1           111% (inactive)
17  CCN(CC)CCC(CNc1ccnc2cc(Cl)ccc12)c1ccccc1 (stereo unspecified)          67.7% (inactive)
18          O=C(O)c1nc(-c2ccccc2)oc1N1CCOCC1           102% (inactive)
19  COC1=C(OC)C(=O)C(CCCCCCCCCC[P+](c2ccccc2)(c2ccccc2)c2ccccc2)=C(C)C1=O           -52.1% (active)
20  COc1ccc(-c2ccc(-c3ccc(C(=N)N)cn3)s2)cc1OC          99.5% (inactive)
21  COc1cccc(/C=C2\Oc3cc(OCCCN4CCCC4)ccc3C2=O)c1          78.4% (inactive)
22  COc1ccc(-c2nc(SCCC(C)C)nc(Nc3ccc(F)c(Cl)c3)c2C#N)cc1          24.1% (inactive)
23  COc1cc(/C=C/C(=O)c2cccc(-n3cc(-c4cc(OC)c(OC)c(OC)c4)[nH]c3=O)c2)cc(OC)c1OC           -1.97% (active)
24  CC(C)C(C(=O)NCCN1CCOCC1)N1C(=O)/C(=C/c2ccc(Br)cc2)SC1=S (stereo unspecified)           101% (inactive)
25                        C=COC(=O)CCCCCCCCC           106% (inactive)
26  COc1ccc2c(c1)OC1=C(C(=O)OC1)C2c1cc(OC)c2c(c1)OCO2 (stereo unspecified)            4.22% (active)
27  COc1ccc(S(=O)(=O)n2cc(C(=O)C(=O)Nc3ccncc3)c3ccccc32)cc1F          69.5% (inactive)
28      C=C(C)[C@@H]1C[C@H](O)Cc2cc(F)ccc2N1           101% (inactive)
29  COc1ccc(-c2ccc(-c3ccc(C(=N)N)s3)s2)cc1Cl           -36.5% (active)
30  Cc1ccc2nc(-c3cc4c([nH]c5ccccc54)c(-c4ccc(F)c(F)c4)n3)[nH]c2c1            83% (inactive)
31  Clc1ccc2c(NC3CCC(NC4CCCCC4)CC3)ccnc2c1 (stereo unspecified)          77.5% (inactive)
32  CC(=O)Oc1cccc(S(=O)(=O)n2cc(C(=O)C(=O)Nc3ccncc3)c3ccccc32)c1          82.1% (inactive)
33  COc1ccc(C2C(C#N)=C(N)Oc3c2ccc2ccccc32)cc1 (stereo unspecified)          14.6% (inactive)
34  COc1cc(/C=C/C(=O)c2c(C)nc3ccccc3c2C)ccc1OCCCCOc1cc2c(cc1OC)C(=O)N1CCC[C@H]1C=N2           -93.3% (active)
35  O=C(/C=C/c1c[nH]c2ccccc12)c1ccc(O)c(CN2CCN(c3ccc(F)cc3)CC2)c1           106% (inactive)
36                      Cc1cc(C(C)(C)C)ccc1S           114% (inactive)
37  O=C(O)C1CCCCN1c1nc(Cl)nc(Cl)n1 (stereo unspecified)           105% (inactive)
38  COc1ccc2cc(-c3ccc(-c4ccc(C(=N)N)cc4)s3)ccc2c1           100% (inactive)
39  Cc1nc2ncccc2nc1Nc1ccc(S(=O)(=O)Nc2ccccn2)cc1           106% (inactive)
40       O=[N+]([O-])c1ccc(OCCCOc2ccccc2)cc1           108% (inactive)
41                      CCN(CC)c1ccc(N=O)cc1          58.9% (inactive)
